B1: minF1; a variant is named by its letters at N, in order (parent)
chain: GAGACCGCAACTGAAAAGTTGTTNNNNAANNNNGGNTNNATTTCTGCACGTAGAAGCAAAAGGC

Variants of: B1
protocol: fraction ligated after 30 min (ligated reads / total reads); higher = more ligase activity
settings: with F1*subA RNA substrate (template-directed ligation), 42 °C

| chain | fraction ligated |
| --- | --- |
| GAGACCGCAACTGAAAAGTTGTTATCAGAAGTGGGTTGAATTTCTGCACGTAGAAGCAAAAGGC | 0.00275 |
| GAGACCGCAACTGAAAAGTTGTATAAAATGGTGGGTTGAATTTCTGCACGTAGAAGCAAAAGGC | 0.00275 |
| GAGACCGCAACTGAAAAGTTGTTTCAGAAATGGGGTTGAATTTCTGCACGTAGAAGCAAAAGGC | 0.00356 |
| GAGACCGCAACTGAAAAGTTGTATAGAAATGGTGGTTGAATTTCTGCACGTAGAAGCAAAAGGC | 0.00325 |
| GAGACCGCAACTGAAAAGTTGTACGAAATGGATGGTTGAATTTCTGCACGTAGAAGCAAAAGGC | 0.0076 |
| GAGACCGCAACTGAAAAGTTGTTATCAGAAAGATGGTTAATTTCTGCACGTAGAAGCAAAAGGC | 0.00276 |
| GAGACCGCAACTGAAAAGTTGTTTAGAAATGGTGGTTGAATTTCTGCACGTAGAAGCAAAAGGC | 0.00065 |
| GAGACCGCAACTGAAAAGTTGTTATCGATGGATGGGTTGATTTCTGCACGTAGAAGCAAAAGGC | 0.0354 |
| GAGACCGCAACTGAAAAGTTGTATCGATGGATGGGTTGAATTTCTGCACGTAGAAGCAAAAGGC | 0.00546 |
| GAGACCGCAACTGAAAAGTTGTTTCAGATGGAGGGTTGAATTTCTGCACGTAGAAGCAAAAGGC | 0.00242 |
| GAGACCGCAACTGAAAAGTTGTTATCAGAAAATGGTTGAATTTCTGCACGTAGAAGCAAAAGGC | 0.00208 |
| GAGACCGCAACTGAAAAGTTGTATCGAAATGTGGGTTGAATTTCTGCACGTAGAAGCAAAAGGC | 0.00234 |
| GAGACCGCAACTGAAAAGTTGTTTCAGAAAGGATGGTTGATTTCTGCACGTAGAAGCAAAAGGC | 0.00594 |
| GAGACCGCAACTGAAAAGTTGTCAGAAATGGATGGGTTGATTTCTGCACGTAGAAGCAAAAGGC | 0.00819 |
| GAGACCGCAACTGAAAAGTTGTTATGAATGGTGGGTTGAATTTCTGCACGTAGAAGCAAAAGGC | 0.00679 |
| GAGACCGCAACTGAAAAGTTGTTATCAAAATGGATGGTTATTTCTGCACGTAGAAGCAAAAGGC | 0.00168 |
| GAGACCGCAACTGAAAAGTTGTTCAGAAATGGTGGGTTGATTTCTGCACGTAGAAGCAAAAGGC | 0.00377 |
| GAGACCGCAACTGAAAAGTTGTTATAAAAGGATGGGTTGATTTCTGCACGTAGAAGCAAAAGGC | 0.00567 |
| GAGACCGCAACTGAAAAGTTGTATCAGAATGATGGGTTGATTTCTGCACGTAGAAGCAAAAGGC | 0.00385 |
| GAGACCGCAACTGAAAAGTTGTATCAGAAGGATGGGTTAATTTCTGCACGTAGAAGCAAAAGGC | 0.00201 |
| GAGACCGCAACTGAAAAGTTGTTACAAAAGGAGGGTTGAATTTCTGCACGTAGAAGCAAAAGGC | 0.00357 |
| GAGACCGCAACTGAAAAGTTGTTTAAAATGATGGGTTGAATTTCTGCACGTAGAAGCAAAAGGC | 0.00224 |
| GAGACCGCAACTGAAAAGTTGTTTCAAAATGGAGGGTTAATTTCTGCACGTAGAAGCAAAAGGC | 0.00279 |
| GAGACCGCAACTGAAAAGTTGTTATGAAAGGATGGGTTAATTTCTGCACGTAGAAGCAAAAGGC | 0.00328 |
| GAGACCGCAACTGAAAAGTTGTATCAGAAGGAGGGTTGAATTTCTGCACGTAGAAGCAAAAGGC | 0.0029 |
| GAGACCGCAACTGAAAAGTTGTTACGAAATGGTGGGTTGATTTCTGCACGTAGAAGCAAAAGGC | 0.00433 |
| GAGACCGCAACTGAAAAGTTGTTACAGAATGGATGGGTTATTTCTGCACGTAGAAGCAAAAGGC | 0.00159 |
| GAGACCGCAACTGAAAAGTTGTTACAGATGGTGGGTTGAATTTCTGCACGTAGAAGCAAAAGGC | 0.000904 |
| GAGACCGCAACTGAAAAGTTGTATCAGAAAGGGGGTTGAATTTCTGCACGTAGAAGCAAAAGGC | 0.004 |
| GAGACCGCAACTGAAAAGTTGTTACAGAAATGATGGTTGATTTCTGCACGTAGAAGCAAAAGGC | 0.00398 |
| GAGACCGCAACTGAAAAGTTGTTTCAGAAAGGAGGTTGAATTTCTGCACGTAGAAGCAAAAGGC | 0.00215 |
| GAGACCGCAACTGAAAAGTTGTTATCGAAAGGTGGGTTGATTTCTGCACGTAGAAGCAAAAGGC | 0.00858 |
| GAGACCGCAACTGAAAAGTTGTCGAAATGGATGGGTTGAATTTCTGCACGTAGAAGCAAAAGGC | 0.00212 |
| GAGACCGCAACTGAAAAGTTGTTCAGAAATGTGGGTTGAATTTCTGCACGTAGAAGCAAAAGGC | 0.00342 |
| GAGACCGCAACTGAAAAGTTGTATCGAAAGGTGGGTTGAATTTCTGCACGTAGAAGCAAAAGGC | 0.00322 |
| GAGACCGCAACTGAAAAGTTGTTATAGAAAGGTGGGTTAATTTCTGCACGTAGAAGCAAAAGGC | 0.00141 |
| GAGACCGCAACTGAAAAGTTGTATCAGAAATGGGGTTGAATTTCTGCACGTAGAAGCAAAAGGC | 0.0062 |
| GAGACCGCAACTGAAAAGTTGTATCAAAATGGAGGTTGAATTTCTGCACGTAGAAGCAAAAGGC | 0.00363 |
| GAGACCGCAACTGAAAAGTTGTTATCAAAATGGTGGGTTATTTCTGCACGTAGAAGCAAAAGGC | 0.00279 |
| GAGACCGCAACTGAAAAGTTGTTTCAAAATGGATGGGTTATTTCTGCACGTAGAAGCAAAAGGC | 0.00235 |
| GAGACCGCAACTGAAAAGTTGTTATAAAATATGGGTTGAATTTCTGCACGTAGAAGCAAAAGGC | 0.00335 |
| GAGACCGCAACTGAAAAGTTGTTACGAAATGATGGTTGAATTTCTGCACGTAGAAGCAAAAGGC | 0.00224 |
| GAGACCGCAACTGAAAAGTTGTTATCAGAAAGGAGGGTTATTTCTGCACGTAGAAGCAAAAGGC | 0.00203 |
| GAGACCGCAACTGAAAAGTTGTTTCAAAAGGTGGGTTGAATTTCTGCACGTAGAAGCAAAAGGC | 0.00226 |
| GAGACCGCAACTGAAAAGTTGTTACAGAAATGTGGTTGAATTTCTGCACGTAGAAGCAAAAGGC | 0.00338 |
| GAGACCGCAACTGAAAAGTTGTTAAGAATGATGGGTTGAATTTCTGCACGTAGAAGCAAAAGGC | 0.00363 |
